B1: minF1; a variant is named by its letters at N, in order (parent)
chain: GAGACCGCAACTGAAAAGTTGTTNNNNAANNNNGGNTNNATTTCTGCACGTAGAAGCAAAAGGC

Variants of: B1
Assay: fraction ligated after 30 min (ligated reads / total reads); higher = more ligase activity
Details: with F1*subA RNA substrate (template-directed ligation), 42 °C
Label Condition met when fraction ligated >= 0.002; otherwise Condition not met.

Reference set (10 entries):
Variant spec: ATCAAATGTGA
Answer label: Condition met
--
Variant spec: TCAAGGATGTA
Answer label: Condition not met
--
Variant spec: ATAGATGGGTT G34A G35T T37G A40G
Answer label: Condition not met
--
Variant spec: ATCAAAGGGTG A28G
Answer label: Condition met
--
Variant spec: TAGAGGATTGA T23A A29T
Answer label: Condition met
--
Variant spec: ATCGATGGGTG G34A
Answer label: Condition met
--
Variant spec: ATCATGGAGTG
Answer label: Condition met
--
Variant spec: CAGATGGAGTT G34T T37G A40G
Answer label: Condition not met
--
Variant spec: ATCAGGATGTG A29T
Answer label: Condition met
--
Variant spec: TCAAGGATGTG T23A A29T
Answer label: Condition met

Q) Check the entry ATAGGATGTGA A29T : does fraction ligated equal or exceed 0.002?
A) Condition met

Q) Check the entry TCAGAGGAGTT T23A G34T T37G A40G : does fraction ligated equal or exceed 0.002?
A) Condition not met

Q) Check the entry ACAGATAGTGA : does fraction ligated equal or exceed 0.002?
A) Condition met

Q) Check the entry AAGAGGAGTGA A29T : does fraction ligated equal or exceed 0.002?
A) Condition met

Q) Check the entry ATCGATGAGTT G34T T37G : does fraction ligated equal or exceed 0.002?
A) Condition not met

Q) Check the entry CAGATGGTTGA : does fraction ligated equal or exceed 0.002?
A) Condition not met

Q) Check the entry ATCAAAGGGTG A28G G34A : does fraction ligated equal or exceed 0.002?
A) Condition met

Q) Check the entry TCGATGGAGTT G34T T37G A40G : does fraction ligated equal or exceed 0.002?
A) Condition not met

Q) Check the entry ATCAATGGTGA : does fraction ligated equal or exceed 0.002?
A) Condition met

These entries and their values trace back to the supplement of paper PMC6755084.
